# assay_method_text: Single dose PK in healthy subjects (Cohorts 1, 2, S1 and S2), plasma
# Format: in vivo, human
# conditions_used: human, plasma, intravenous, 7 mg; 1 hr After End of Infusion; read-out: Plasma concentration, Median
measurement_kind: concentration at 1 h after end of infusion
// unit must come after the numeric part

Request: In one line, give reported concentration at 1 h after end of infusion of the entry `COC(=O)N1CCC[C@H](NS(C)(=O)=O)[C@@H]1CO[C@H]1CC[C@@H](c2ccccc2)CC1` .
Response: 4.83 ng/mL

###

# assay_method_text: Single dose PK in patients with narcolepsy (Cohorts 5, 6 and 7), plasma
# Assay type: in vivo, human
# conditions_used: human, plasma, intravenous, 44.8 mg, Cmpd A 44.8 mg; Mean; Cohort 5, 6, 7
measurement_kind: AUC(0-t)

Request: Output AUC(0-t) of COC(=O)N1CCC[C@H](NS(C)(=O)=O)[C@@H]1CO[C@H]1CC[C@@H](c2ccccc2)CC1 [Compound A]
Response: 941 ng·h/mL

###

# assay_method_text: Single dose PK in healthy subjects (Cohorts 1, 2, S1 and S2), plasma
# Assay type: in vivo, human
# conditions_used: human, plasma, intravenous, 7 mg; 2 hr; read-out: Plasma concentration, Maximum
measurement_kind: concentration at 2 h (ng/mL)
Give the number; ng/mL is assumed, so skip it.

Request: Entry `COC(=O)N1CCC[C@H](NS(C)(=O)=O)[C@@H]1CO[C@H]1CC[C@@H](c2ccccc2)CC1` needs its concentration at 2 h filled in; supply it.
Response: 18.5

###

# assay_method_text: Single dose PK in healthy subjects (Cohorts 1, 2, S1 and S2), plasma
# Type: in vivo, human
# conditions_used: human, plasma, intravenous, 112 mg; 6 hr; read-out: Plasma concentration, Q1
measurement_kind: concentration at 6 h (ng/mL)
Express it in ng/mL; write the number only.

Request: Using the record for COC(=O)N1CCC[C@H](NS(C)(=O)=O)[C@@H]1CO[C@H]1CC[C@@H](c2ccccc2)CC1 [Compound A] , state its measured concentration at 6 h.
Response: 186

###

# assay_method_text: Single dose PK in healthy subjects (Cohorts 1, 2, S1 and S2), plasma
# Assay type: in vivo, human
# conditions_used: human, plasma, iv, IV administration, healthy subjects; read-out: mean estimates of plasma clearance
measurement_kind: clearance

Request: Supply clearance value. Item: `COC(=O)N1CCC[C@H](NS(C)(=O)=O)[C@@H]1CO[C@H]1CC[C@@H](c2ccccc2)CC1`
Response: 717 to 1000 mL/min

###

# assay_method_text: Single dose PK in healthy subjects (Cohorts 1, 2, S1 and S2), plasma
# Type: in vivo, human
# conditions_used: human, plasma, intravenous, 180 mg; 1.5 hr; read-out: Plasma concentration, Minimum
measurement_kind: concentration at 1.5 hr (ng/mL)
Please give a number only; it is taken to be in ng/mL.

Request: Return the recorded concentration at 1.5 hr value; entry: COC(=O)N1CCC[C@H](NS(C)(=O)=O)[C@@H]1CO[C@H]1CC[C@@H](c2ccccc2)CC1 [Compound A]
Response: 224

###

# assay_method_text: Single dose PK in healthy subjects (Cohorts 1, 2, S1 and S2), plasma
# Type: in vivo, human
# conditions_used: human, plasma, intravenous, 180 mg; 0.5 hr; read-out: Plasma concentration, Mean
measurement_kind: concentration at 0.5 h (ng/mL)
Write the number in ng/mL without appending the unit.

Request: Please give measured concentration at 0.5 h of the following entry: `COC(=O)N1CCC[C@H](NS(C)(=O)=O)[C@@H]1CO[C@H]1CC[C@@H](c2ccccc2)CC1`
Response: 180

###

# assay_method_text: Single dose PK in healthy subjects (Cohorts 1, 2, S1 and S2), plasma
# Assay type: in vivo, human
# conditions_used: human, plasma, iv, 28 mg, 28 mg single IV infusion, healthy subjects; read-out: Cmax Median
measurement_kind: Cmax
Record the result as a number with its unit.

Request: Give recorded Cmax. `COC(=O)N1CCC[C@H](NS(C)(=O)=O)[C@@H]1CO[C@H]1CC[C@@H](c2ccccc2)CC1`
Response: 59.3 ng/mL

###

# assay_method_text: Single dose PK in healthy subjects (Cohorts 1, 2, S1 and S2), plasma
# Type: in vivo, human
# conditions_used: human, plasma, intravenous, 14 mg; 0.5 hr; read-out: Plasma concentration, Q1
measurement_kind: concentration at 0.5 h (ng/mL)
Please give a number only; it is taken to be in ng/mL.

Request: For the molecule `COC(=O)N1CCC[C@H](NS(C)(=O)=O)[C@@H]1CO[C@H]1CC[C@@H](c2ccccc2)CC1` , give its reported concentration at 0.5 h.
Response: 21.7

###

# assay_method_text: Single dose PK in healthy subjects (Cohorts 1, 2, S1 and S2), plasma
# Assay type: in vivo, human
# conditions_used: human, plasma, intravenous, 14 mg; 9 hr; read-out: Plasma concentration, Q1
measurement_kind: concentration at 9 h
// unit must come after the numeric part

Request: Report concentration at 9 h for `COC(=O)N1CCC[C@H](NS(C)(=O)=O)[C@@H]1CO[C@H]1CC[C@@H](c2ccccc2)CC1`
Response: 28.4 ng/mL

###

# assay_method_text: Single dose PK in healthy subjects (Cohorts 1, 2, S1 and S2), plasma
# Assay type: in vivo, human
# conditions_used: human, plasma, intravenous, 180 mg; 3 hr; read-out: Plasma concentration, Minimum
measurement_kind: concentration at 3 hr

Request: Supply measured concentration at 3 hr of COC(=O)N1CCC[C@H](NS(C)(=O)=O)[C@@H]1CO[C@H]1CC[C@@H](c2ccccc2)CC1 [Compound A] in your reply.
Response: 276 ng/mL

###

# assay_method_text: Single dose PK in healthy subjects (Cohorts 1, 2, S1 and S2), plasma
# Format: in vivo, human
# conditions_used: human, plasma, iv, 112 mg, 112 mg single IV infusion, healthy subjects; read-out: Cmax Mean
measurement_kind: Cmax (ng/mL)
Please state the figure in ng/mL; there is no need to write the unit.

Request: Input `COC(=O)N1CCC[C@H](NS(C)(=O)=O)[C@@H]1CO[C@H]1CC[C@@H](c2ccccc2)CC1` , output reported Cmax.
Response: 238

###

# assay_method_text: Single dose PK in healthy subjects (Cohorts 1, 2, S1 and S2), plasma
# Type: in vivo, human
# conditions_used: human, plasma, iv, 28 mg, 28 mg single IV infusion, healthy subjects; read-out: AUClast Median
measurement_kind: AUC(0-t) (ng·h/mL)
I only need the number, in ng·h/mL, no unit after it.

Request: Given COC(=O)N1CCC[C@H](NS(C)(=O)=O)[C@@H]1CO[C@H]1CC[C@@H](c2ccccc2)CC1 [Compound A] , respond with its AUC(0-t).
Response: 543

###

# assay_method_text: Single dose PK in healthy subjects (Cohorts 1, 2, S1 and S2), plasma
# Format: in vivo, human
# conditions_used: human, plasma, iv, 240 mg, 240 mg single IV infusion; 8 hr; read-out: Plasma Concentration of Cmpd A, Median
measurement_kind: concentration at 8 hr

Request: Recall and state the measured concentration at 8 hr for `COC(=O)N1CCC[C@H](NS(C)(=O)=O)[C@@H]1CO[C@H]1CC[C@@H](c2ccccc2)CC1` .
Response: 470 ng/mL

###

# assay_method_text: Single dose PK in healthy subjects (Cohorts 1, 2, S1 and S2), plasma
# Format: in vivo, human
# conditions_used: human, plasma, intravenous, 180 mg; 1.5 hr; read-out: Plasma concentration, Maximum
measurement_kind: concentration at 1.5 h
Hi, when you answer, please include the unit after the number. Thanks!

Request: Provide only the value of recorded concentration at 1.5 h for COC(=O)N1CCC[C@H](NS(C)(=O)=O)[C@@H]1CO[C@H]1CC[C@@H](c2ccccc2)CC1 [Compound A]
Response: 304 ng/mL

###

# assay_method_text: Single dose PK in healthy subjects (Cohorts 1, 2, S1 and S2), plasma
# Type: in vivo, human
# conditions_used: human, plasma, intravenous, 112 mg; 2 hr; read-out: Plasma concentration, Minimum
measurement_kind: concentration at 2 h (ng/mL)
Only the number, expressed in ng/mL, is required.

Request: Determine its reported concentration at 2 h: `COC(=O)N1CCC[C@H](NS(C)(=O)=O)[C@@H]1CO[C@H]1CC[C@@H](c2ccccc2)CC1`
Response: 150

###

# assay_method_text: Single dose PK in healthy subjects (Cohorts 1, 2, S1 and S2), plasma
# Format: in vivo, human
# conditions_used: human, plasma, intravenous, 112 mg; 9 hr; read-out: Plasma concentration, Mean
measurement_kind: concentration at 9 h (ng/mL)
The reply should contain only the number, in ng/mL.

Request: Return value of concentration at 9 h for input COC(=O)N1CCC[C@H](NS(C)(=O)=O)[C@@H]1CO[C@H]1CC[C@@H](c2ccccc2)CC1 [Compound A] , no commentary.
Response: 216

Ref: patent US20220339143A1
